target: σ2 receptor (Rattus norvegicus, UniProt Q5U3Y7); construct: tissue Harlan Winkelmann; host or cells: rat liver membranes; test: Receptor binding assay with [3H]-ditolylguanidine on rat liver membranes; conditions: 3 nM [3H]-ditolylguanidine with 2 µM (+)-pentazocine, values given in µM, read-out: affinity to the σ2 receptor
Sequence (Q5U3Y7 whole entry): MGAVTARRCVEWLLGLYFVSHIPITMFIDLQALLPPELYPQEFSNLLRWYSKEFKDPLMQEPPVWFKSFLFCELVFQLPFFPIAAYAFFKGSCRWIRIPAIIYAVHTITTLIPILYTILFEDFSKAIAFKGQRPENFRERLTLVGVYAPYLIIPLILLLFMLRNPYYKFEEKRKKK
Reported Ki values for the following compounds.
Numbers only; they are read as µM.

| COMPOUND | OBSERVED_MEASUREMENT |
| --- | --- |
| O=S(=O)(CCCN1CCc2cc(OCc3ccccc3)ccc2C(O)C1)c1ccccc1 (centres unmarked) | 3.04 |

Ask: Check the records and state Ki for OC1CN(CCCCc2ccccc2)CCc2cc(OCc3ccccc3)ccc21 (centres unmarked)
Reply: 1.05

Ask: Check the records and state Ki for CN(Cc1ccccc1)C(=O)CN1CCc2cc(O)ccc2C(O)C1 (centres unmarked)
Reply: 1.58

Ask: Check the records and state Ki for CC(C)(C)c1ccc(C(=O)CCCN2CCc3cc(OCc4ccccc4)ccc3C(O)C2)cc1 (centres unmarked)
Reply: 6.43

Ask: Check the records and state Ki for COc1ccc2c(c1)CCN(CCCSc1ccccc1)CC2O (centres unmarked)
Reply: 1.52
